# Test system: NCI-H838
# Method notes: relative viability (nuclei count vs DMSO), 5 days (fraction); higher = more cells survive
# Conditions used: first compound 0.2 µM
Experimental endpoint: relative viability
Note: the reply should be a number with no unit written.

Quick check: relative viability on NCI-H838, item CCNC(=O)c1noc(-c2cc(C(C)C)c(O)cc2O)c1-c1ccc(CN2CCOCC2)cc1 [Luminespib] + Cc1nc(NC(=O)N2CCC[C@H]2C(N)=O)sc1-c1ccnc(C(C)(C)C(F)(F)F)c1 [Alpelisib] (partner 2 µM) ?
0.153

Quick check: relative viability on NCI-H838, item Cc1csc(=NC2CCCCC2)n1/N=C/c1ccc(O)c(O)c1O [MIM1] + CC(C)C[C@H](NC(=O)[C@H](Cc1ccccc1)NC(=O)c1cnccn1)B(O)O [Bortezomib] (partner 0.002 µM) ?
0.869

Quick check: relative viability on NCI-H838, item CCNC(=O)c1noc(-c2cc(C(C)C)c(O)cc2O)c1-c1ccc(CN2CCOCC2)cc1 [Luminespib] + CC(=O)c1c(C)c2cnc(Nc3ccc(N4CCNCC4)cn3)nc2n(C2CCCC2)c1=O [Palbociclib] (partner 0.5 µM) ?
0.105

Quick check: relative viability on NCI-H838, item CN1CCN(CCOc2cc(OC3CCOCC3)c3c(Nc4c(Cl)ccc5c4OCO5)ncnc3c2)CC1 [Saracatinib] + Cc1nc(NC(=O)N2CCC[C@H]2C(N)=O)sc1-c1ccnc(C(C)(C)C(F)(F)F)c1 [Alpelisib] (partner 2 µM) ?
0.929

Quick check: relative viability on NCI-H838, item CN1CCN(CCOc2cc(OC3CCOCC3)c3c(Nc4c(Cl)ccc5c4OCO5)ncnc3c2)CC1 [Saracatinib] + Cc1nc(Nc2ncc(C(=O)Nc3c(C)cccc3Cl)s2)cc(N2CCN(CCO)CC2)n1 [Dasatinib] (partner 0.075 µM) ?
0.277

Quick check: relative viability on NCI-H838, item CN1CCN(CCOc2cc(OC3CCOCC3)c3c(Nc4c(Cl)ccc5c4OCO5)ncnc3c2)CC1 [Saracatinib] + Nc1ncn([C@H]2C[C@H](O)[C@@H](CO)O2)c(=O)n1 [Decitabine] (partner 2 µM) ?
0.417

Quick check: relative viability on NCI-H838, item Cc1csc(=NC2CCCCC2)n1/N=C/c1ccc(O)c(O)c1O [MIM1] + CC(=O)c1c(C)c2cnc(Nc3ccc(N4CCNCC4)cn3)nc2n(C2CCCC2)c1=O [Palbociclib] (partner 0.5 µM) ?
0.202

Quick check: relative viability on NCI-H838, item Cc1csc(=NC2CCCCC2)n1/N=C/c1ccc(O)c(O)c1O [MIM1] + C[C@@H](Oc1cc(-c2cnn(C3CCNCC3)c2)cnc1N)c1c(Cl)ccc(F)c1Cl [Crizotinib] (partner 1 µM) ?
0.818

Quick check: relative viability on NCI-H838, item CCNC(=O)c1noc(-c2cc(C(C)C)c(O)cc2O)c1-c1ccc(CN2CCOCC2)cc1 [Luminespib] + O=C(c1cc(Cc2n[nH]c(=O)c3ccccc23)ccc1F)N1CCN(C(=O)C2CC2)CC1 [Olaparib] (partner 8 µM) ?
0.129

----------
Please provide measured relative viability for the entries that follow.
# System: EKVX
# Method notes: relative viability (nuclei count vs DMSO), 5 days (fraction); higher = more cells survive
# Conditions used: first compound 6.325 µM
Note: the reply should be a number with no unit written.

Quick check: relative viability on EKVX, item Cc1csc(=NC2CCCCC2)n1/N=C/c1ccc(O)c(O)c1O [MIM1] + COc1cccc2cc(-c3nc([C@H]4CC[C@H](C(=O)O)CC4)n4ncnc(N)c34)[nH]c12 [OSI-027] (partner 0.5 µM) ?
0.53

Quick check: relative viability on EKVX, item Cc1csc(=NC2CCCCC2)n1/N=C/c1ccc(O)c(O)c1O [MIM1] + O=C(CCCCCCC(=O)Nc1ccccc1)NO [Vorinostat] (partner 1 µM) ?
0.473

Quick check: relative viability on EKVX, item Cc1csc(=NC2CCCCC2)n1/N=C/c1ccc(O)c(O)c1O [MIM1] + CC1(C)CCC(c2ccc(Cl)cc2)=C(CN2CCN(c3ccc(C(=O)NS(=O)(=O)c4ccc(N[C@H](CCN5CCOCC5)CSc5ccccc5)c(S(=O)(=O)C(F)(F)F)c4)cc3)CC2)C1 [Navitoclax] (partner 0.5 µM) ?
0.761

Quick check: relative viability on EKVX, item Cc1csc(=NC2CCCCC2)n1/N=C/c1ccc(O)c(O)c1O [MIM1] + CC(C)C[C@H](NC(=O)[C@H](Cc1ccccc1)NC(=O)c1cnccn1)B(O)O [Bortezomib] (partner 0.002 µM) ?
0.601

----------
Please provide measured relative viability for the entries that follow.
# Test system: EBC-1
# Method notes: relative viability (nuclei count vs DMSO), 5 days (fraction); higher = more cells survive
# Conditions used: first compound 0.8 µM
Note: the reply should be a number with no unit written.

Please look up its relative viability: Nc1cccc2c1CN(C1CCC(=O)NC1=O)C2=O (centres undefined) [Lenalidomide] + O=C(c1cc(Cc2n[nH]c(=O)c3ccccc23)ccc1F)N1CCN(C(=O)C2CC2)CC1 [Olaparib] (partner 8 µM)
0.603

Please look up its relative viability: Nc1cccc2c1CN(C1CCC(=O)NC1=O)C2=O (centres undefined) [Lenalidomide] + CC(C)C[C@H](NC(=O)[C@H](Cc1ccccc1)NC(=O)c1cnccn1)B(O)O [Bortezomib] (partner 0.002 µM)
0.589

Please look up its relative viability: Nc1cccc2c1CN(C1CCC(=O)NC1=O)C2=O (centres undefined) [Lenalidomide] + C[C@]1(O)C[C@@H](c2nc(-c3ccc4ccc(-c5ccccc5)nc4c3)c3c(N)nccn32)C1 [Linsitinib] (partner 1 µM)
0.849

Please look up its relative viability: Nc1cccc2c1CN(C1CCC(=O)NC1=O)C2=O (centres undefined) [Lenalidomide] + CS(=O)(=O)CCNCc1ccc(-c2ccc3ncnc(Nc4ccc(OCc5cccc(F)c5)c(Cl)c4)c3c2)o1 [Lapatinib] (partner 2 µM)
0.205

----------
Please provide measured relative viability for the entries that follow.
# Tested on: COR-L 105
# Method notes: relative viability (nuclei count vs DMSO), 5 days (fraction); higher = more cells survive
# Conditions used: first compound 0.02 µM
Note: the reply should be a number with no unit written.

Please look up its relative viability: CCNC(=O)c1noc(-c2cc(C(C)C)c(O)cc2O)c1-c1ccc(CN2CCOCC2)cc1 [Luminespib] + CC(C)C[C@H](NC(=O)[C@H](Cc1ccccc1)NC(=O)c1cnccn1)B(O)O [Bortezomib] (partner 0.002 µM)
0.342

Please look up its relative viability: CCNC(=O)c1noc(-c2cc(C(C)C)c(O)cc2O)c1-c1ccc(CN2CCOCC2)cc1 [Luminespib] + CC1(C)CCC(c2ccc(Cl)cc2)=C(CN2CCN(c3ccc(C(=O)NS(=O)(=O)c4ccc(N[C@H](CCN5CCOCC5)CSc5ccccc5)c(S(=O)(=O)C(F)(F)F)c4)cc3)CC2)C1 [Navitoclax] (partner 0.5 µM)
1.12

Please look up its relative viability: CN1CCN(CCOc2cc(OC3CCOCC3)c3c(Nc4c(Cl)ccc5c4OCO5)ncnc3c2)CC1 [Saracatinib] + C[C@@H](Oc1cc(-c2cnn(C3CCNCC3)c2)cnc1N)c1c(Cl)ccc(F)c1Cl [Crizotinib] (partner 1 µM)
0.881

Please look up its relative viability: CN1CCN(CCOc2cc(OC3CCOCC3)c3c(Nc4c(Cl)ccc5c4OCO5)ncnc3c2)CC1 [Saracatinib] + Cc1nc(NC(=O)N2CCC[C@H]2C(N)=O)sc1-c1ccnc(C(C)(C)C(F)(F)F)c1 [Alpelisib] (partner 2 µM)
0.91

----------
# System: COR-L23
# Method notes: relative viability (nuclei count vs DMSO), 5 days (fraction); higher = more cells survive
# Conditions used: first compound 0.253 µM
Experimental endpoint: relative viability
Note: the reply should be a number with no unit written.

Quick check: relative viability on COR-L23, item Nc1cccc2c1CN(C1CCC(=O)NC1=O)C2=O (stereo not drawn) [Lenalidomide] + COc1cccc2cc(-c3nc([C@H]4CC[C@H](C(=O)O)CC4)n4ncnc(N)c34)[nH]c12 [OSI-027] (partner 0.5 µM) ?
0.781

Quick check: relative viability on COR-L23, item Nc1cccc2c1CN(C1CCC(=O)NC1=O)C2=O (stereo not drawn) [Lenalidomide] + C[C@@H](Oc1cc(-c2cnn(C3CCNCC3)c2)cnc1N)c1c(Cl)ccc(F)c1Cl [Crizotinib] (partner 1 µM) ?
0.656

Quick check: relative viability on COR-L23, item Nc1cccc2c1CN(C1CCC(=O)NC1=O)C2=O (stereo not drawn) [Lenalidomide] + CCNC(=O)c1noc(-c2cc(C(C)C)c(O)cc2O)c1-c1ccc(CN2CCOCC2)cc1 [Luminespib] (partner 0.01 µM) ?
0.683

----------
Please provide measured relative viability for the entries that follow.
# System: NCI-H1650
# Method notes: relative viability (nuclei count vs DMSO), 5 days (fraction); higher = more cells survive
# Conditions used: first compound 0.006325 µM
Note: the reply should be a number with no unit written.

Please look up its relative viability: CCNC(=O)c1noc(-c2cc(C(C)C)c(O)cc2O)c1-c1ccc(CN2CCOCC2)cc1 [Luminespib] + CC(=O)c1c(C)c2cnc(Nc3ccc(N4CCNCC4)cn3)nc2n(C2CCCC2)c1=O [Palbociclib] (partner 0.5 µM)
0.302

Please look up its relative viability: CCNC(=O)c1noc(-c2cc(C(C)C)c(O)cc2O)c1-c1ccc(CN2CCOCC2)cc1 [Luminespib] + O=C(c1cc(Cc2n[nH]c(=O)c3ccccc23)ccc1F)N1CCN(C(=O)C2CC2)CC1 [Olaparib] (partner 8 µM)
0.786

Please look up its relative viability: CCNC(=O)c1noc(-c2cc(C(C)C)c(O)cc2O)c1-c1ccc(CN2CCOCC2)cc1 [Luminespib] + N=C(N)NC(=N)NCCc1ccccc1 [Phenformin] (partner 250 µM)
0.219

Please look up its relative viability: CCNC(=O)c1noc(-c2cc(C(C)C)c(O)cc2O)c1-c1ccc(CN2CCOCC2)cc1 [Luminespib] + CC(C)C[C@H](NC(=O)[C@H](Cc1ccccc1)NC(=O)c1cnccn1)B(O)O [Bortezomib] (partner 0.002 µM)
0.193

Please look up its relative viability: CCNC(=O)c1noc(-c2cc(C(C)C)c(O)cc2O)c1-c1ccc(CN2CCOCC2)cc1 [Luminespib] + CS(=O)(=O)N1CCN(Cc2cc3nc(-c4cccc5[nH]ncc45)nc(N4CCOCC4)c3s2)CC1 [Pictilisib] (partner 1 µM)
0.653

Please look up its relative viability: CCNC(=O)c1noc(-c2cc(C(C)C)c(O)cc2O)c1-c1ccc(CN2CCOCC2)cc1 [Luminespib] + C[C@@H](Oc1cc(-c2cnn(C3CCNCC3)c2)cnc1N)c1c(Cl)ccc(F)c1Cl [Crizotinib] (partner 1 µM)
0.928

Please look up its relative viability: CCNC(=O)c1noc(-c2cc(C(C)C)c(O)cc2O)c1-c1ccc(CN2CCOCC2)cc1 [Luminespib] + COc1cc2c(Oc3ccc(NC(=O)C4(C(=O)Nc5ccc(F)cc5)CC4)cc3F)ccnc2cc1OCCCN1CCOCC1 [Foretinib] (partner 0.25 µM)
1.17

Please look up its relative viability: CCNC(=O)c1noc(-c2cc(C(C)C)c(O)cc2O)c1-c1ccc(CN2CCOCC2)cc1 [Luminespib] + COc1cccc2cc(-c3nc([C@H]4CC[C@H](C(=O)O)CC4)n4ncnc(N)c34)[nH]c12 [OSI-027] (partner 0.5 µM)
0.44
